assay target: human PI3Kα protein (Homo sapiens)
Construct: purchased Carna Biosciences, Inc; host or cells: Baculovirus expression system
protocol: PI3Kα enzyme assay (ADP-Glo kinase assay)
Type: biochemical
condition parameters: IC50 class; 3 nM PI3Kα, 50 μM PIP2, 100 μM ATP; read-out: PI3Kα Inhibitory Activity
Each entry below lists one item and its recorded IC50 value.

// known answers, use as guide
[[record]]
compound = "CC(C)(C)OC(=O)n1cc(-c2cnc3ccc(NC(=O)NC4CCCc5ccccc54)nc3c2)cn1 (centres unmarked) [Compound 0066]"
reported_measurement = "1000 to 10000 nM"

[[record]]
compound = "COc1nc2ccc(NC(=O)NC3CCCC3)nc2cc1-c1cnn(C)c1 [Compound 0234]"
reported_measurement = "1000 to 10000 nM"

[[record]]
compound = "O=C(NCC1CC1)Nc1ccc2ncc(-c3cn[nH]c3)cc2n1 [Compound 0186]"
reported_measurement = "100 to 1000 nM"

[[record]]
compound = "CS(=O)(=O)Nc1cccc(-c2cnc3ccc(NC(=O)NC4CCCC4)nc3c2)c1 [Compound 0035]"
reported_measurement = "< 100 nM"

[[record]]
compound = "C[C@@H](C[C@H](C)Oc1ccccc1)NC(=O)Nc1ccc2ncc(-c3cn[nH]c3)cc2n1 [Compound 0163]"
reported_measurement = "100 to 1000 nM"

[[record]]
compound = "S=C(Nc1ccc2ncc(-c3cnn(CCN4CCOCC4)c3)cc2n1)NC1CCCC1 [Compound 0138]"
reported_measurement = "< 100 nM"

[[record]]
compound = "O=C(Nc1ccc2ncc(N3CCN(c4ccncc4)CC3)cc2n1)NC1CCCC1 [Compound 0158]"
reported_measurement = "< 100 nM"

[[record]]
compound = "O=C(Nc1ccc2ncc(Nc3cn[nH]c3)cc2n1)NC1CCCC1 [Compound 0125]"
reported_measurement = "< 100 nM"

[[record]]
compound = "CCCCNC(=O)Nc1ccc2ncc(-c3cn[nH]c3)cc2n1 [Compound 0093]"
reported_measurement = "< 100 nM"

[[record]]
compound = "O=C(Nc1ccc2ncc(N3CCS(=O)(=O)CC3)cc2n1)NC1CCCC1 [Compound 0133]"
reported_measurement = "< 100 nM"


-- ask Return IC50 (reported value) for this compound: COc1ccccc1CCCCNC(=O)Nc1ccc2ncc(-c3cn[nH]c3)cc2n1 [Compound 0168]
-- reply < 100 nM

-- ask State, in one line, measured IC50 of O=C(Nc1ccc2ncc(-c3cn[nH]c3)cc2n1)NC1CC1 [Compound 0067]
-- reply 100 to 1000 nM

-- ask Identify measured IC50 associated with COc1c(-c2cnn(C)c2)cnc2ccc(NC(=O)NC3CCCC3)nc12 [Compound 0235]
-- reply < 100 nM

-- ask Give IC50 for CC(C)(C)NC(=O)Nc1ccc2ncc(-c3cnn(CCCN4CCOCC4)c3)cc2n1 [Compound 0185]
-- reply 1000 to 10000 nM

====

assay target: human PI3Kα protein (Homo sapiens, UniProt P42336)
Construct: purchased Carna Biosciences, Inc; host or cells: Baculovirus expression system
Sequence (P42336 whole entry): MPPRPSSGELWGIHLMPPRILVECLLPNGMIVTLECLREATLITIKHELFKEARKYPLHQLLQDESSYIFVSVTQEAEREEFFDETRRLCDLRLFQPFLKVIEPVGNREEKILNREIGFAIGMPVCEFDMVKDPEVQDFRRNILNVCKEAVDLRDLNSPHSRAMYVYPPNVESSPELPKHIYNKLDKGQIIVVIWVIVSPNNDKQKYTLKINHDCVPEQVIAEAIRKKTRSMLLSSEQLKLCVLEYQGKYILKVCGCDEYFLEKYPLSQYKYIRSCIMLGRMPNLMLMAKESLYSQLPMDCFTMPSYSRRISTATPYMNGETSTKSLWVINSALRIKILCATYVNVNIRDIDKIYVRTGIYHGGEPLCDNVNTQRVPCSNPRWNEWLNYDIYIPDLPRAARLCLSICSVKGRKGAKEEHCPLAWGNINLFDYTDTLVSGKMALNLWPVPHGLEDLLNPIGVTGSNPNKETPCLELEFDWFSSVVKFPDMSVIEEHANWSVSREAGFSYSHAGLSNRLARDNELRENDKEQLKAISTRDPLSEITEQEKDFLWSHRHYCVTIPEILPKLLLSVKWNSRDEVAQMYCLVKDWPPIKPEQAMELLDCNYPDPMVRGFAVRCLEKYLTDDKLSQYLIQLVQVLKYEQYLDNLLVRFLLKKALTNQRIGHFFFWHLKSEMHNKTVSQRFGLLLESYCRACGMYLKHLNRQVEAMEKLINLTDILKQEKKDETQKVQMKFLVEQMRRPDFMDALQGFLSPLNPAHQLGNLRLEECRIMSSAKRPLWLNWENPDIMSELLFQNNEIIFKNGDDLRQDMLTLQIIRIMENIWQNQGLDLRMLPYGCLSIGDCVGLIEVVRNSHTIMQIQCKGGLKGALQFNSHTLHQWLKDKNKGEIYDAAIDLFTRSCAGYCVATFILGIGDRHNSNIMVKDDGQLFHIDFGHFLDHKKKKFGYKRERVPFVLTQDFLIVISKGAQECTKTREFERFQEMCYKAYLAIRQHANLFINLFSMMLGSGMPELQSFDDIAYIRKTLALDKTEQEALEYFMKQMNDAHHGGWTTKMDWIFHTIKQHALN
Sequence (P27986 whole entry partner): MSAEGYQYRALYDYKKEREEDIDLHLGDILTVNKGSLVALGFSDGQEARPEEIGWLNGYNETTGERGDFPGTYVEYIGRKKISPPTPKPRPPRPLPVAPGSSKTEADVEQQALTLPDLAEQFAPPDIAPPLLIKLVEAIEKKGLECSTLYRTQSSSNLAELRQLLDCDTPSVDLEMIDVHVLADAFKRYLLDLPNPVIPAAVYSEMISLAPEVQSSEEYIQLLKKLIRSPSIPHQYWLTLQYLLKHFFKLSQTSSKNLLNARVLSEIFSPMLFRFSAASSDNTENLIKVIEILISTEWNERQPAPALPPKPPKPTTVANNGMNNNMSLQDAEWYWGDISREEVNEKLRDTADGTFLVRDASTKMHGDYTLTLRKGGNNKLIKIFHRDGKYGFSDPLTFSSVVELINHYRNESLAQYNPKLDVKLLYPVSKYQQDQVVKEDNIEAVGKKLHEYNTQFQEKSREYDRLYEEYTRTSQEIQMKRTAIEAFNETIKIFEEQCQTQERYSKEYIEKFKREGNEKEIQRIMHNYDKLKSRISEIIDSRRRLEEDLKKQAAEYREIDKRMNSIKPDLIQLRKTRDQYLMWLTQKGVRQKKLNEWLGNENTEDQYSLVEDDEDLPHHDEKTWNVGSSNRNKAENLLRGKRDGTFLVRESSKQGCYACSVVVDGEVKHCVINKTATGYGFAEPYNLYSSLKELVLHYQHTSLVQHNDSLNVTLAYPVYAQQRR
protocol: PI3Kα enzyme assay (ADP-Glo kinase assay)
Type: biochemical
condition parameters: IC50 class; 3 nM PI3Kα, 50 μM PIP2, 100 μM ATP; read-out: PI3Kα Inhibitory Activity
measure name: IC50

[[record]]
structure = "CN(CCNC(=O)Nc1ccc2ncc(-c3cn[nH]c3)cc2n1)Cc1ccccc1"
measure_name = "IC50"
reported_measurement = "100 to 1000 nM"


-- ask Using the record for `COc1cc(-c2cnc3ccc(NC(=O)NC4CCCC4)nc3c2)cnc1O` , state its measured IC50.
-- reply < 100 nM

-- ask Note IC50 for the compound shown: `O=C(Nc1ccc2ncc(-c3ccsc3)cc2n1)NC1CCCC1`
-- reply 100 to 1000 nM

-- ask Name the recorded IC50 of the item `O=C(Nc1ccc2ncc(-c3cnn(CCCCN4C(=O)c5ccccc5C4=O)c3)cc2n1)NC1CCCC1` in your answer.
-- reply < 100 nM

====

assay target: glutathione S-transferase (GST)-fusion human ERK2 protein (Homo sapiens)
Construct: purchased Carna Biosciences, Inc; host or cells: E. coli expression system
Sequence (P28482 whole entry, the tested form may be a part): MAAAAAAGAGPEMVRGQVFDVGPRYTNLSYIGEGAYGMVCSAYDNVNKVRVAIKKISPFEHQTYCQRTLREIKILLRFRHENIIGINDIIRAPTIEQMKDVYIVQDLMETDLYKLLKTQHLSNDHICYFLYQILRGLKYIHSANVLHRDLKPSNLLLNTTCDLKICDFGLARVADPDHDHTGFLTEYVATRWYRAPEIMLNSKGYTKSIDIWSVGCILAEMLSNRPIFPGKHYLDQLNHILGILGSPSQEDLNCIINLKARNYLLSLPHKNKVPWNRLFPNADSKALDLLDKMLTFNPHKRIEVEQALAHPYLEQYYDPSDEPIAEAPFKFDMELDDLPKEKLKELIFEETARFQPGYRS
protocol: ERK2 enzyme assay (LabChip mobility shift)
Format: biochemical
condition parameters: IC50 class; 2 nM ERK2, 4.25 μM FL-Peptide 8, 43 μM ATP; read-out: ERK2 Inhibitory Activity
Protocol: Evaluation of the ERK2 inhibitory activity of the compound of the present invention was carried out according to the method as described below. For the ERK2 enzyme assay, a glutathione S-transferase (GST)-fusion human ERK2 protein (Carna Biosciences, Inc.) produced using an E. coli expression system was used. […] The inhibitory activity of the compounds was evaluated using an IC50 (50% inhibitory concentration). The IC50 was calculated using XLfit (IDBS).
pIC50: −log10 of the molar value.
measure name: pIC50

-- ask Look up and state reported pIC50 for `O=C(Nc1ccc2ncc(N3CCN(c4ccccn4)CC3)cc2n1)NC1CCCC1`
-- reply 6.00 to 7.00

-- ask Please supply the value of reported pIC50 for the item `COCCNCCn1cc(-c2cnc3ccc(NC(=O)NC4CCCC4)nc3c2)cn1`
-- reply 6.00 to 7.00

-- ask Quickly give me recorded pIC50 for `C[C@@H](NC(=O)Nc1ccc2ncc(-c3cn[nH]c3)cc2n1)C1CCCC1`
-- reply > 7.00

-- ask Please list pIC50 recorded for the molecule `O=C(NCCCCc1cccc(Cl)c1)Nc1ccc2ncc(-c3cn[nH]c3)cc2n1`
-- reply > 7.00

-- ask Assign pIC50 to the following record: `C=Cn1cc(-c2cnc3ccc(NC(=O)NC4CCCC4)nc3c2)cn1`
-- reply > 7.00

-- ask Specify measured pIC50 for `CN(C)CCn1cc(-c2cnc3ccc(NC(=S)N[C@@H]4C[C@H]5CC[C@@H]4C5)nc3c2)cn1` .
-- reply > 7.00

====

assay target: human PI3Kα protein (Homo sapiens)
Construct: purchased Carna Biosciences, Inc; host or cells: Baculovirus expression system
protocol: PI3Kα enzyme assay (ADP-Glo kinase assay)
Type: biochemical
condition parameters: IC50 class; 3 nM PI3Kα, 50 μM PIP2, 100 μM ATP; read-out: PI3Kα Inhibitory Activity
pIC50: −log10 of the molar value.
measure name: pIC50

[[record]]
molecule = "CCCC(C)(C)NC(=O)Nc1ccc2ncc(-c3cn[nH]c3)cc2n1 [Compound 0184]"
reported_measurement = "> 7.00"

[[record]]
molecule = "O=C(Nc1ccc2ncc(-c3cn[nH]c3)cc2n1)NC1CCCC1 [Compound 0137]"
reported_measurement = "> 7.00"

[[record]]
molecule = "C[C@H](NC(=O)Nc1ccc2ncc(-c3cn[nH]c3)cc2n1)C1CCCCC1 [Compound 0079]"
reported_measurement = "> 7.00"

[[record]]
molecule = "CC(C)(C)NC(=O)Nc1ccc2ncc(-c3cn[nH]c3)cc2n1 [Compound 0059]"
reported_measurement = "> 7.00"

[[record]]
molecule = "N#Cc1cnc2ccc(NC(=O)NC3CCCC3)nc2c1 [Compound 0129]"
reported_measurement = "5.00 to 6.00"


-- ask Supply reported pIC50 belonging to this molecule: O=C(Nc1ccc2ncc(-c3ccnc(O)c3)cc2n1)NC1CCCC1 [Compound 0023]
-- reply > 7.00

-- ask Dear colleague, please send me the reported pIC50 for O=C(Nc1ccc2ncc(-c3cccnc3)cc2n1)NC1CCCC1 [Compound 0005] when you can.
-- reply 6.00 to 7.00

-- ask Respond only with pIC50 recorded for O=C(Nc1ccc2ncc(-c3cn[nH]c3)cc2n1)NC1CCC1 [Compound 0084]
-- reply > 7.00

-- ask Specify pIC50 for CN(C)CCNC(=O)C1CCN(c2cnc3ccc(NC(=O)NC4CCCC4)nc3c2)CC1 [Compound 0150] and stop.
-- reply 6.00 to 7.00

====

assay target: human PI3Kα protein (Homo sapiens)
Construct: purchased Carna Biosciences, Inc; host or cells: Baculovirus expression system
protocol: PI3Kα enzyme assay (ADP-Glo kinase assay)
Type: biochemical
condition parameters: IC50 class; 3 nM PI3Kα, 50 μM PIP2, 100 μM ATP; read-out: PI3Kα Inhibitory Activity
As shown below, each of these molecules has a reported IC50 value.

-- ask Answer with the recorded IC50 of `COC1CN(c2cnc3ccc(NC(=O)NC4CCCC4)nc3c2)C1` only.
-- reply 100 to 1000 nM

-- ask Give recorded IC50. `O=C(Nc1ccc2ncc(-c3cnn(C4CNC4)c3)cc2n1)NC1CCCC1`
-- reply < 100 nM

-- ask For the molecule `O=C(Nc1ccc2ncc(-c3cn[nH]n3)cc2n1)NC1CCCC1` , report IC50.
-- reply < 100 nM

-- ask Dear colleague, please send me the reported IC50 for CC(C)CC(C)NC(=O)Nc1ccc2ncc(-c3cn[nH]c3)cc2n1 (stereo not drawn) when you can.
-- reply < 100 nM

====

IC50: recorded values
assay target: glutathione S-transferase (GST)-fusion human ERK2 protein (Homo sapiens)
Construct: purchased Carna Biosciences, Inc; host or cells: E. coli expression system
protocol: ERK2 enzyme assay (LabChip mobility shift)
Assay type: biochemical
condition parameters: IC50 class; 2 nM ERK2, 4.25 μM FL-Peptide 8, 43 μM ATP; read-out: ERK2 Inhibitory Activity

Would you please look over these solved cases?
[[record]]
compound = "CC(C)(C)NC(=O)Nc1ccc2ncc(-c3cnn(CCCN4CCNCC4)c3)cc2n1"
reported_measurement = "< 100 nM"

[[record]]
compound = "O=C(NCC1CCOC1)Nc1ccc2ncc(-c3cn[nH]c3)cc2n1 (centres unmarked)"
reported_measurement = "< 100 nM"

[[record]]
compound = "Cn1cc(-c2cnc3ccc(NC(=O)NC4CCCC4)nc3c2)c(CO)n1"
reported_measurement = "< 100 nM"


-- ask Supply recorded IC50 for `Cn1cc(-c2cc3nc(NC(=O)NC4CCCC4)ccc3nc2Cl)cn1` here.
-- reply > 10000 nM

-- ask Return IC50 (reported value) for this compound: O=C(Nc1ccc2ncc(-c3cn[nH]c3)cc2n1)NC1CCOC1 (centres unmarked)
-- reply < 100 nM

These data points were gathered from patent US8841456B2.
